METHOD NOTES: NF-kB reporter blockers in CF airway cells – cell-based, GFP fluorescence, uHTS, primary screen (AID 588850);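 note: PAF is a Pseudomonas aeruginosa culture filtrate used as stimulus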
MEASUREMENT CONDITIONS: KKLEB NF-kB-GFP reporter, PAF-induced, GFP fluorescence overnight; at 5 µM
About 3,100 (0.86%) of roughly 360,000 compounds were called active.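 Rule for the calls: active = at least 50% inhibition at 5 µM, scaled per plate between neutral and stimulator controls; inactive = the rest.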 The full list was thinned out, with actives kept by preference.
I would appreciate it if you answered using one of these outcomes: T = active, F = inactive

Reference set (5 entries):
| MOLECULE | CLASSIFICATION |
| --- | --- |
| Cc1nc2sccn2c(=O)c1S(=O)(=O)NCCc1ccccc1 | F |
| COC(=O)c1ccc(NC(=O)CSc2nncn2-c2cccnc2)cc1 | F |
| Cc1ccc([C@H]2C[C@H](O)[C@@H](n3cc(COC(=O)c4ccccc4)nn3)CN2CC2CCCCC2)cc1 | T |
| COc1ccc(-c2ccc(CN3C(CC(C)C)C(=O)N(Cc4cn(CC5CCCCC5)nn4)CCS3(=O)=O)cc2)cn1 (stereo not drawn) | T |
| O=C(Nc1ccc(F)c([N+](=O)[O-])c1)C1CCCO1 (stereo not drawn) | F |

Task: Please state the recorded outcome for this molecule: CC(c1ccco1)N(C(=O)COc1ccccc1[N+](=O)[O-])c1ccccn1 (stereo not drawn)
Output: F

Task: Also need CC1C(=O)N(Cc2cn(Cc3ccco3)nn2)CCS(=O)(=O)N1Cc1ccc(-c2cccc(CO)c2)cc1 (stereo not drawn) , thanks.
Output: F
